Provenance of the data: patent US10738056B2

Molecular target: Human cGAS amino acids 155-522 (Homo sapiens (Human), UniProt Q8N884)
Sequence (Q8N884 157-522): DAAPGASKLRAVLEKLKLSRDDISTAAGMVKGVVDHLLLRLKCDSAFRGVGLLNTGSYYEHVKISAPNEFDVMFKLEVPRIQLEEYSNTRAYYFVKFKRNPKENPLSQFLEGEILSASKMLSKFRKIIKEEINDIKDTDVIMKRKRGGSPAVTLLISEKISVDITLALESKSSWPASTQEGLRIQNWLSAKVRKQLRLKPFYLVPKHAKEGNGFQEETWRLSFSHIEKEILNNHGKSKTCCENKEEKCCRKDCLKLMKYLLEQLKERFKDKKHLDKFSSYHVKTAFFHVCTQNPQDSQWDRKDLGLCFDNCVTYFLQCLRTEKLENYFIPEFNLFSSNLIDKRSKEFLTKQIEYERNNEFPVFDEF
Test: cGAS biochemical activity assay (ATP remaining, Kinase-Glo Max luminescence)
Settings: human cGAS 155-522, ATP remaining (Kinase-Glo Max); read-out: cGAS IC50
# maps each entry to its IC50

{"MOLECULE": "Cc1[nH]c2c(-c3ccccc3)c(C(F)(F)F)nn2c(=O)c1-c1cnc2ccccc2c1", "IC50": "20 to 250 µM"}
{"MOLECULE": "Cc1cccc(-c2c(C(F)(F)F)nn3c(=O)c(-c4nc5c(o4)CCCC5)c(C)[nH]c23)c1", "IC50": "> 250 µM"}
{"MOLECULE": "COc1ccc(NC(=O)c2c(C)[nH]c3c(-c4ccccc4)c(C(F)(F)F)nn3c2=O)cc1", "IC50": "20 to 250 µM"}
{"MOLECULE": "COc1cccc2oc(-c3c(C(C)=O)[nH]c4c(-c5ccccc5)c(C(F)(F)F)nn4c3=O)nc12", "IC50": "20 to 250 µM"}

-- ask May I ask what IC50 has been recorded for COc1cccc2c1nc(-c1c(C)[nH]c3c(-c4ccccc4)c(C(F)(F)F)nn3c1=O)n2CC(=O)O ?
-- reply 20 to 250 µM

-- ask Now give it for Cc1[nH]c2c(-c3ccccc3)c(C(F)(F)F)nn2c(=O)c1C(=O)NC1CCOCC1 too.
-- reply 20 to 250 µM

-- ask Now give it for Cc1[nH]c2c(-c3ccccc3)c(C(F)(F)F)nn2c(=O)c1C(=O)NS(=O)(=O)c1ccccc1Cl too.
-- reply < 20 µM

-- ask Now give it for Cc1[nH]c2c(-c3ccccc3)c(C#N)nn2c(=O)c1-c1nc2ccc(N)cc2o1 too.
-- reply < 20 µM

-- ask Now give it for COc1cccc2oc(-c3c(CC(=O)O)[nH]c4c(-c5ccccc5)c(C(F)(F)F)nn4c3=O)nc12 too.
-- reply 20 to 250 µM

-- ask Now give it for Cc1[nH]c2c(-c3ccccc3)c(C(F)(F)F)nn2c(=O)c1-c1nc2c(o1)CCCNC2=O too.
-- reply < 20 µM

-- ask Now give it for COc1c(Br)cccc1NC(=O)c1c(C)[nH]c2c(-c3ccccc3)c(C(F)(F)F)nn2c1=O too.
-- reply 20 to 250 µM

-- ask Now give it for COc1ccc(Cl)c2oc(-c3c(C)[nH]c4c(-c5ccccc5)c(C(F)(F)F)nn4c3=O)nc12 too.
-- reply < 20 µM

-- ask Now give it for COc1cccc(NC(=O)c2c(C)[nH]c3c(-c4ccccc4)c(C(F)(F)F)nn3c2=O)c1 too.
-- reply < 20 µM

-- ask Now give it for COc1ccccc1NC(=O)c1c[nH]c2c(-c3ccccc3)c(C(F)(F)F)nn2c1=O too.
-- reply 20 to 250 µM

-- ask Now give it for Cc1[nH]c2c(-c3ccccc3)c(C(F)(F)F)nn2c(=O)c1-c1nnc(C2CCCNC2)o1 (stereo not drawn) too.
-- reply 20 to 250 µM

###

# maps each entry to its IC50
Target: Human cGAS amino acids 155-522 (Homo sapiens (Human))
Assay: cGAS biochemical activity assay (ATP remaining, Kinase-Glo Max luminescence)
Conditions: human cGAS 155-522, ATP remaining (Kinase-Glo Max); read-out: cGAS IC50

{"COMPOUND": "COCc1[nH]c2c(-c3ccccc3)c(C(F)(F)F)nn2c(=O)c1-c1ncc(C2CCCC2)o1", "IC50": "> 250 µM"}
{"COMPOUND": "Cc1[nH]c2c(-c3ccccc3)c(C(F)(F)F)nn2c(=O)c1-c1nnc(-c2cccnc2)o1", "IC50": "20 to 250 µM"}

Switching to the query record.
-- ask May I ask what IC50 has been recorded for COc1cccc2oc(-c3c(C)[nH]c4c(-c5cccc(F)c5)c(C(F)(F)F)nn4c3=O)nc12 ?
-- reply < 20 µM

###

Target: Human cGAS amino acids 155-522 (Homo sapiens (Human), UniProt Q8N884)
Assay: cGAS biochemical activity assay (ATP remaining, Kinase-Glo Max luminescence)
Settings: human cGAS 155-522, ATP remaining (Kinase-Glo Max); read-out: cGAS IC50
# maps each entry to its IC50

The following molecules have reported results that may help.
{"MOLECULE": "COc1cc(F)cc(NC(=O)c2c(C)[nH]c3c(-c4ccccc4)c(C(F)(F)F)nn3c2=O)c1 [Compound A1133]", "ASSAY ENDPOINT": "IC50", "MEASURED RESULT": "< 20 µM"}
{"MOLECULE": "Cc1[nH]c2c(-c3ccccc3)c(C(F)(F)F)nn2c(=O)c1C(=O)Nc1cccc(N(S(C)(=O)=O)S(C)(=O)=O)c1 [Compound A1046]", "ASSAY ENDPOINT": "IC50", "MEASURED RESULT": "20 to 250 µM"}
{"MOLECULE": "Cc1[nH]c2c(-c3ccccc3)c(C(F)(F)F)nn2c(=O)c1-c1nnc(-c2ccc(N)cc2)o1 [Compound D1081]", "ASSAY ENDPOINT": "IC50", "MEASURED RESULT": "> 250 µM"}

-- ask May I ask what IC50 has been recorded for Cc1[nH]c2c(-c3ccccc3)c(C(F)(F)F)nn2c(=O)c1-c1nnc(N(C)C2CCCCC2)o1 [Compound D1043] ?
-- reply > 250 µM

###

Target: Human cGAS amino acids 155-522 (Homo sapiens (Human), UniProt Q8N884)
Test: cGAS biochemical activity assay (ATP remaining, Kinase-Glo Max luminescence)
Conditions: human cGAS 155-522, ATP remaining (Kinase-Glo Max); read-out: cGAS IC50
ASSAY ENDPOINT: IC50

-- ask Requested read-out IC50, target or system Human cGAS amino acids 155-522 (Homo sapiens (Human), UniProt Q8N884), entry Cc1[nH]c2c(-c3ccccc3)c(C(F)(F)F)nn2c(=O)c1CC(=O)N1CCOCC1 [Compound B1002]
-- reply > 250 µM

-- ask Now give it for C#Cc1nn2c(=O)c(-c3nc4c(OC)cccc4o3)c(C)[nH]c2c1-c1ccccc1 [Compound C1211] too.
-- reply < 20 µM

-- ask Now give it for Cc1[nH]c2c(-c3ccccc3)c(C(F)(F)F)nn2c(=O)c1-c1nnc(-c2cccc(N)c2)o1 [Compound D1079] too.
-- reply > 250 µM

-- ask Now give it for Cc1ccc(CN2CCN(C(=O)Cc3c(C)[nH]c4c(-c5ccccc5)c(C(F)(F)F)nn4c3=O)CC2)cc1 [Compound B1009] too.
-- reply > 250 µM

-- ask Now give it for COc1cccc2oc(-c3c(OCCN(C)C)[nH]c4c(-c5ccccc5)c(C(F)(F)F)nn4c3=O)nc12 [Compound C1067] too.
-- reply > 250 µM

-- ask Now give it for COc1cccc2oc(-c3c(C(=O)NCc4cc[nH]n4)[nH]c4c(-c5ccccc5)c(C(F)(F)F)nn4c3=O)nc12 [Compound C1245] too.
-- reply < 20 µM

###

Target: Human cGAS amino acids 155-522 (Homo sapiens (Human))
Experiment: cGAS biochemical activity assay (ATP remaining, Kinase-Glo Max luminescence)
Settings: human cGAS 155-522, ATP remaining (Kinase-Glo Max); read-out: cGAS IC50
ASSAY ENDPOINT: IC50

The following compounds have reported results that may help.
{"COMPOUND": "COc1cccc2oc(-c3c(C)[nH]c4c(-c5ccccc5)c(C#N)nn4c3=O)nc12 [Compound C1051]", "IC50": "< 20 µM"}
{"COMPOUND": "Cc1[nH]c2c(-c3ccccc3)c(C(F)(F)F)nn2c(=O)c1C(=O)Nc1ccccc1Cl [Compound A1033]", "IC50": "20 to 250 µM"}

-- ask May I ask what IC50 has been recorded for COc1cc(CN)cc2oc(-c3c(C)[nH]c4c(-c5ccccc5)c(C(F)(F)F)nn4c3=O)nc12 [Compound C1128] ?
-- reply > 250 µM

-- ask Now give it for COc1cccc2c1nc(-c1c(C)[nH]c3c(-c4ccccc4)c(C(F)(F)F)nn3c1=O)n2CC1CC1 [Compound C1189] too.
-- reply 20 to 250 µM

-- ask Now give it for COCc1coc(-c2c(C)[nH]c3c(-c4ccccc4)c(C(F)(F)F)nn3c2=O)n1 [Compound C1108] too.
-- reply < 20 µM

-- ask Now give it for CCCS(=O)(=O)NC(=O)c1c(C)[nH]c2c(-c3ccccc3)c(C(F)(F)F)nn2c1=O [Compound A1111] too.
-- reply < 20 µM

-- ask Now give it for COc1cccc(CS(=O)(=O)NC(=O)c2c(C)[nH]c3c(-c4ccccc4)c(C(F)(F)F)nn3c2=O)c1 [Compound A1132] too.
-- reply < 20 µM
